System: 282377-053-R-J1-PDC complex spheroid viability;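 also: spheroids exposed to compounds for seven days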
Experiment: Anticancer human tumor 282377-053-R-J1-PDC patient-derived colon adenocarcinoma cell line growth inhibition [POLQ]
Settings: curve of first compound; second compound 0.0316 µM
pIC50: −log10 of the molar value.
The entries below come with measured pIC50 values attached.
Attribute Measured: pIC50

{"columns": ["Compound", "System Name", "Attribute Measured", "Result"],
 "data": [
  ["O=C(c1cc(Cc2n[nH]c(=O)c3ccccc23)ccc1F)N1CCN(C(=O)C2CC2)CC1 + Nc1ccc(C#CCN(C(=O)Cc2ncc(C(F)(F)F)cc2C(F)(F)F)c2ccc(F)cc2)nn1", "282377-053-R-J1-PDC complex spheroid viability", "pIC50", "< 5.00"],
  ["COc1ccc([C@@H](O)c2cc(-c3ncnc4cc(N5CCOCC5)ccc34)c(F)cc2Cl)nn1 + Cc1cccc(N(C)C(=O)C2C(O)CCN2c2nc(C)cc(C(F)(F)F)c2C#N)c1", "282377-053-R-J1-PDC complex spheroid viability", "pIC50", "< 5.00"],
  ["O=C(c1cc(Cc2n[nH]c(=O)c3ccccc23)ccc1F)N1CCN(C(=O)C2CC2)CC1 + Cc1cccc(N(C)C(=O)C2C(O)CCN2c2nc(C)cc(C(F)(F)F)c2C#N)c1", "282377-053-R-J1-PDC complex spheroid viability", "pIC50", "< 5.00"]
]}
